biological target: T1, HLA-A*24:02 molecule; experiment: flow cytometry, C1R-A24 cells;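 note: Read-out was the amount of peptide–MHC complex on each cell, taken as the fluorescence intensity of a bound fluorescent antibody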
T1 construct: MHC class I molecule on C1R-A24 cells, endogenous peptide and b2m stripped at pH 3.3, purified b2m added back; also called product of an HLA-A*24:02 gene; allele A*24:02
Known log10 Kd (M) of a selection of binders

Before answering, review these 5 worked examples.
{"BINDER": "LMITRKSFI (synthetic 9-mer derived from Fas) [peptide of SEQ ID NO: 17]", "log10 Kd (M)": -6.01}
{"BINDER": "AYRTCWIFS (synthetic 9-mer derived from Casp-8) [peptide of SEQ ID NO: 49]", "log10 Kd (M)": -5.42}
{"BINDER": "HMAKVIEFL (synthetic 9-mer derived from EVC1) [peptide of SEQ ID NO: 38]", "log10 Kd (M)": -6.03}
{"BINDER": "YLYDPPTTI (synthetic 9-mer derived from CADM1) [peptide of SEQ ID NO: 4]", "log10 Kd (M)": -6.16}
{"BINDER": "ILSDHQQSQ (synthetic 9-mer derived from Casp-8) [peptide of SEQ ID NO: 70]", "log10 Kd (M)": "> -3"}

Prompt line: // query log10 Kd (M) value for entry SLLITRKSF (synthetic 9-mer derived from Fas) [peptide of SEQ ID NO: 62]
Response line: -5.84

Prompt line: Can you share its log10 Kd (M)? I mean this binder: SPDEFSNDF (synthetic 9-mer derived from Casp-8) [peptide of SEQ ID NO: 73]
Response line: > -3
